Tested on: 885724-159-R-J1-PDC complex spheroid viability;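 also: spheroids exposed to agents for seven days before readout; percent of vehicle control viability where 100% = DMSO wells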
assayNotes: Anticancer human tumor 885724-159-R-J1-PDC patient-derived pancreatic adenocarcinoma cell line growth inhibition [GQUAD]
statedConditions: second compound 0.1 µM; first compound 0.316 µM; active compounds read low
valueType: viability, T/C (%)
Give the value, in units of %, as a plain number.

Problem: What does the data say about its viability, T/C? Entry: Cc1[nH]c2ccccc2c1CCNCc1ccc(/C=C/C(=O)NO)cc1 + Cc1cnc(CNC(=O)c2c(=O)c3ccc(N4CCCN(C)CC4)nc3n3c2sc2ccccc23)cn1
Result: 44.7

Problem: Another compound to check: COc1ncnc(C2CC2)c1-c1ncc2cnn(Cc3ccc(-c4nc(C(F)(F)F)cn4C(C)C)cc3)c2n1 + Cc1[nH]c2ccc(F)cc2c1-c1nc2c3cccnc3c3ncccc3c2[nH]1
Result: 86.3

Problem: Another compound to check: COc1cccc2c1C(=O)c1c(O)c3c(c(O)c1C2=O)CC(O)(C(=O)CO)CC3OC1CC(N)C(O)C(C)O1 (stereo not given) + CN(C)c1ccc(Nc2c3ccc(NC(=O)CCN4CCCC4)cc3nc3cc(NC(=O)CCN4CCCC4)ccc23)cc1
Result: 81

Problem: Another compound to check: COc1ncnc(C2CC2)c1-c1ncc2cnn(Cc3ccc(-c4nc(C(F)(F)F)cn4C(C)C)cc3)c2n1 + CN(C)c1ccc(Nc2c3ccc(NC(=O)CCN4CCCC4)cc3nc3cc(NC(=O)CCN4CCCC4)ccc23)cc1
Result: 96.9

Problem: Another compound to check: CCc1c2c(nc3ccc(O)cc13)-c1cc3c(c(=O)n1C2)COC(=O)[C@]3(O)CC + Cc1cnc(CNC(=O)c2c(=O)c3ccc(N4CCCN(C)CC4)nc3n3c2sc2ccccc23)cn1
Result: 7.81
